- target or test system: Glucose transporter (Leishmania mexicana)
- test: ST_JUDE_LEISH: Cytotoxicity at 2uM final concentration against transgenic Leishmania Mexicana promastigotes LmGT2 that are glucose transport deficient and complemented with the L. Mexicana glucose transporter 2. Activity is measured by DNA content using SYBR green in vitro
- Type: functional
property: inhibition (%)
Supply the numeric figure in %, leaving out any unit text.

# get_value(readout='inhibition', item= CC(C)CN(c1nc(C(=O)NNC(=O)[C@H](CC2CC2)NC(=O)c2cc3cc(OCCN4CCCCC4)ccc3o2)cs1)C1CC1 )
0.46

# get_value(readout='inhibition', item= O=C(/C=C/c1ccc(Cl)c(Cl)c1)NCCCCCN1CCN(C(=O)Nc2ccc(C(F)(F)F)cc2)CC1 )
0.71

# get_value(readout='inhibition', item= O=C(NC1CCCC1)c1ccc(N2CCC(NCc3cc4cc(Cl)ccc4[nH]3)CC2)cc1 )
2.98

# get_value(readout='inhibition', item= CN(C)CCCSc1ccccc1NC(=O)C=Cc1ccccc1 )
6.85

# get_value(readout='inhibition', item= Oc1cccc(CCNCCCCCCNCCc2ccc(Cl)cc2)c1 )
2.3

# get_value(readout='inhibition', item= O=C(Nc1ccc(N2CCN(c3ncccc3C(F)(F)F)CC2)nc1)c1cccs1 )
0.38

# get_value(readout='inhibition', item= CON(CCCN(C)C)C(=N)N )
0.26

# get_value(readout='inhibition', item= O=C(c1ccc(Cl)cc1)C1CCN(CCCOc2ccc3c(c2)CCNCC3)CC1 )
0.17

# get_value(readout='inhibition', item= CC1CCCCC1N(C)C1CCN(CCCNC(=O)C=Cc2ccc(Cl)cc2Cl)CC1 (centres undefined) )
1.66

# get_value(readout='inhibition', item= CNC(=O)C1Cc2c([nH]c3c(C)cccc23)C2(N1)C(=O)Nc1ccc(OC(F)(F)F)cc12 (centres undefined) )
3.8

# get_value(readout='inhibition', item= COc1cc(NC(=O)N2CCOC(CCN3CCC4(CCc5ccccc54)CC3)(c3ccc(Cl)c(Cl)c3)C2)cc(OC)c1OC (centres undefined) )
14.1

# get_value(readout='inhibition', item= CCCN(CCC)CC(O)COc1ccccc1C(=O)Nc1ccccc1 (centres undefined) )
-5

# get_value(readout='inhibition', item= CCc1cn2c3c(cc(C(=O)N[C@@H](Cc4ccccc4)[C@H](O)CNC4CCC4)cc13)N(C)S(=O)(=O)CC2 )
1.83

# get_value(readout='inhibition', item= O=C(NCCCCN1CCC(c2ccc(C(F)(F)F)cc2C(F)(F)F)CC1)c1ccc(NC(=O)c2ccc(Cl)cc2)cc1 )
-1.54

# get_value(readout='inhibition', item= Cc1cc(N2CCCC2)nc(Nc2ccc(NC(=O)Nc3ccccc3)cc2)n1 )
3.63

# get_value(readout='inhibition', item= FC(F)(F)COc1ccc(CCNCCCCNCCc2ccc(OCC(F)(F)F)c3ccccc23)c2ccccc12 )
1.09

# get_value(readout='inhibition', item= Cc1cc2c(cc1C(F)(F)F)N(C(=O)Nc1ccc(OCCN(C)C)c(C(F)(F)F)c1)CC2 )
0.83

# get_value(readout='inhibition', item= COc1ccc(C(=O)CCC(=O)N(Cc2ccc(-c3ccc(CNCCc4ccc(S(C)(=O)=O)cc4)cn3)cc2)C2CC3CCC2C3)cc1F (centres undefined) )
8.16

# get_value(readout='inhibition', item= CCOC(=O)CCCCCNC[C@H](O)c1ccccc1 )
-2.14
